# reported Kd; entries follow
- experimentalTarget: GDP-bound KRAS wild-type protein (Homo sapiens, UniProt P01116)
- Sequence (P01116 whole entry): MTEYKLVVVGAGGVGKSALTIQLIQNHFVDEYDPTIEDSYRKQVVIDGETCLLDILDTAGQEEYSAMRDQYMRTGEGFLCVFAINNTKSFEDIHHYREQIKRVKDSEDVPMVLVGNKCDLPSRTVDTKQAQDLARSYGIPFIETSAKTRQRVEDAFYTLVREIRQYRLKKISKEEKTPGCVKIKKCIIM
- testDetails: Binding to KRAS by surface plasmon resonance (SPR), Single Cycle Kinetics
- measurementSetup: SPR Single Cycle Kinetics, GDP-bound KRAS wild-type protein, 1:1 binding model; read-out: KRAS KD
*1 amine or outer side, *2 acyl side, *3 side chain or, on linkers, in order; H or OH if unused. Where a SMILES comes first, the peptide text is derived from it. Bridges are numbered along the chain shown (N, C = ends). [ ]: non-standard residue; d: D form. The star is where a group is joined. hPhe(3-Cl-4-CF3) = N[C@@H](CCc1ccc(C(F)(F)F)c(Cl)c1)C(=O)O; NPrPhe(4-CF3) = CCCN[C@@H](Cc1ccc(C(F)(F)F)cc1)C(=O)O; X21 = Cc1ccc(C[C@@H](C(=O)[*:2])N(CC2CC2)[*:1])cc1; NMeAbu(4,4,4-F3) = CN[C@@H](CC(F)(F)F)C(=O)O; NMeGly(cPent) = CN[C@H](C(=O)O)C1CCCC1; NMeD = CN[C@@H](CC(=O)O)C(=O)O; NMeL = CN[C@@H](CC(C)C)C(=O)O; Morpholide = C1CN(*)CCO1; Ac5c = NC1(C(=O)O)CCCC1; Sar = CNCC(=O)O
propertyName: Kd (nM)

# compound, unitTag, readoutNumber
measured = [
    ("CC[C@H](C)[C@@H]1NC(=O)[C@H](CC(C)C)N(C)C(=O)C[C@@H](C(=O)N2CCOCC2)N(C)C(=O)[C@H](C2CCCC2)N(C)C(=O)C2(CCCC2)NC(=O)[C@@H]2CCCN2C(=O)[C@H](CCc2ccc(C(F)(F)F)c(Cl)c2)NC(=O)CN(C)C(=O)[C@H](Cc2ccc(C)cc2)N(CC2CC2)C(=O)CN(C)C(=O)CN(C)C1=O [PP0064] ([NMeL]I[Sar][Sar][X21][Sar][hPhe(3-Cl-4-CF3)]P[Ac5c][NMeGly(cPent)][NMeD]-Morpholide; lactam N-11)", "nM", 0.42),
    ("CCCN1C(=O)CN(C)C(=O)CN(C)C(=O)[C@H]([C@@H](C)CC)NC(=O)[C@H](CC(F)(F)F)N(C)C(=O)C[C@@H](C(=O)N2CCOCC2)N(C)C(=O)[C@H](C2CCCC2)N(C)C(=O)C2(CCCC2)NC(=O)[C@@H]2CCCN2C(=O)[C@H](CCc2ccc(C(F)(F)F)c(Cl)c2)NC(=O)CN(C)C(=O)[C@@H]1Cc1ccc(C(F)(F)F)cc1 [PP0187] ([NMeAbu(4,4,4-F3)]I[Sar][Sar][NPrPhe(4-CF3)][Sar][hPhe(3-Cl-4-CF3)]P[Ac5c][NMeGly(cPent)][NMeD]-Morpholide; lactam N-11)", "nM", 0.19),
]
